ASSAY INFO: Fluorescence titration of labeled ParM with ATP
Assay type: binding
CONDITION: Table 2; highly purified ATP containing only 0.03% ADP, 20° C.
Protocol: The MDCC fluorescence was excited at 431 nm and emission was recorded at 474 nm. The equilibrium dissociation constants were determined by fitting a quadratic binding curve to the data. For the plot the experimental fluorescence intensities were converted to the nucleotide bound fraction of ParM. […] ADP and ATP were purchased from Sigma at the highest purity available. The purity of the nucleotides was analysed by HPLC using a Partisphere SAX column, 125×4.5 mm (Whatman). […]
So I've got a bunch of molecules here, and I need their pKd values.
When answering, recall that pKd equals minus log10 of the concentration in mol/L, and write that number alone.

Per the record, T174A: MDCC-ParM (His6/I27C/T174A/C287A) (conjugate, UniProt P11904 1-320, looked up, variant I27C T174A C287A, MDCC label; His6 tag) Plasmid segregation protein …: MLVFIDDGSTNIKLQWQESDGTIKQHCSPNSFKREWAVSFGDKKVFNYTLNGEQYSFDPISPDAVVTTNIAWQYSDVNVVAVHHALLTSGLPVSEVDIVCTLPLTEYYDRNNQPNTENIERKKANFRKKITLNGGDTFTIKDVKVMPESIPAGYEVLQELDELDSLLIIDLGGATLDISQVMGKLSGISKIYGDSSLGVSLVTSAVKDALSLARTKGSSYLADDIIIHRKDNNYLKQRINDENKISIVTEAMNEALRKLEQRVLNTLNEFSGYTHVMVIGGGAELIADAVKKHTQIRDERFFKTNNSQYDLVNGMYLIGN has pKd of 4.19

Measured pKd, T175N: MDCC-ParM (His6/I27C/T175N/C287A) (conjugate, UniProt P11904 1-320, looked up, variant I27C T175N C287A, MDCC label; His6 tag) Plasmid segregation protein …: MLVFIDDGSTNIKLQWQESDGTIKQHCSPNSFKREWAVSFGDKKVFNYTLNGEQYSFDPISPDAVVTTNIAWQYSDVNVVAVHHALLTSGLPVSEVDIVCTLPLTEYYDRNNQPNTENIERKKANFRKKITLNGGDTFTIKDVKVMPESIPAGYEVLQELDELDSLLIIDLGGTNLDISQVMGKLSGISKIYGDSSLGVSLVTSAVKDALSLARTKGSSYLADDIIIHRKDNNYLKQRINDENKISIVTEAMNEALRKLEQRVLNTLNEFSGYTHVMVIGGGAELIADAVKKHTQIRDERFFKTNNSQYDLVNGMYLIGN : 3.74

Lab note: measured pKd of S9A: MDCC-ParM (His6/S9A/I27C/C287A) (conjugate, UniProt P11904 1-320, looked up, variant S9A I27C C287A, MDCC label; His6 tag) Plasmid segregation protein …: MLVFIDDGATNIKLQWQESDGTIKQHCSPNSFKREWAVSFGDKKVFNYTLNGEQYSFDPISPDAVVTTNIAWQYSDVNVVAVHHALLTSGLPVSEVDIVCTLPLTEYYDRNNQPNTENIERKKANFRKKITLNGGDTFTIKDVKVMPESIPAGYEVLQELDELDSLLIIDLGGTTLDISQVMGKLSGISKIYGDSSLGVSLVTSAVKDALSLARTKGSSYLADDIIIHRKDNNYLKQRINDENKISIVTEAMNEALRKLEQRVLNTLNEFSGYTHVMVIGGGAELIADAVKKHTQIRDERFFKTNNSQYDLVNGMYLIGN was 4.01

For record T175F: MDCC-ParM (His6/I27C/T175F/C287A) (conjugate, UniProt P11904 1-320, looked up, variant I27C T175F C287A, MDCC label; His6 tag) Plasmid segregation protein …: MLVFIDDGSTNIKLQWQESDGTIKQHCSPNSFKREWAVSFGDKKVFNYTLNGEQYSFDPISPDAVVTTNIAWQYSDVNVVAVHHALLTSGLPVSEVDIVCTLPLTEYYDRNNQPNTENIERKKANFRKKITLNGGDTFTIKDVKVMPESIPAGYEVLQELDELDSLLIIDLGGTFLDISQVMGKLSGISKIYGDSSLGVSLVTSAVKDALSLARTKGSSYLADDIIIHRKDNNYLKQRINDENKISIVTEAMNEALRKLEQRVLNTLNEFSGYTHVMVIGGGAELIADAVKKHTQIRDERFFKTNNSQYDLVNGMYLIGN the listed pKd is 3.86
